target: tissue plasminogen activator (t-PA) (Homo sapiens, UniProt P00750); construct: purchased American Diagnostica, Greenwich, Conn; experiment: Serine protease inhibition (Kass), t-PA; type: biochemical
Sequence (P00750 36-562): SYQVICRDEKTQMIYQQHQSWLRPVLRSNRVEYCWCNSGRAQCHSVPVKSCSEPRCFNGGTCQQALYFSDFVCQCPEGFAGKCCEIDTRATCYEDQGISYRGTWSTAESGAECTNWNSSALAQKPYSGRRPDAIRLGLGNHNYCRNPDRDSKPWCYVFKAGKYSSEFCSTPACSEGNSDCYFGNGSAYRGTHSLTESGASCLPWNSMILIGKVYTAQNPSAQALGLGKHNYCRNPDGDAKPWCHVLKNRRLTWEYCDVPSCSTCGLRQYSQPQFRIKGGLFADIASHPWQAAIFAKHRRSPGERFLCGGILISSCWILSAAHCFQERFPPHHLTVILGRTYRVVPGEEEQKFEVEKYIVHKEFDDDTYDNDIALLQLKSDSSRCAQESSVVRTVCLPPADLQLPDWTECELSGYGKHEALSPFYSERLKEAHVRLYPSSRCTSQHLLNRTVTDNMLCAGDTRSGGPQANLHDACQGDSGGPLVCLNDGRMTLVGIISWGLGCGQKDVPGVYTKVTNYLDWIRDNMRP
Listing of entries alongside the reported Kass t-PA.

[
  {
    "molecule": "Cl.N=C(N)NCCC[C@@H](C=O)NC(=O)[C@@H]1CCCN1C(=O)[C@@H](Cc1ccccc1)NC(=O)C1CCCCC1",
    "Kass t-PA": "0.26 L/mol × 10^6"
  },
  {
    "molecule": "Cl.Cl.N=C(N)NCCC[C@@H](C=O)NC(=O)[C@@H]1CCCN1C(=O)[C@@]1(Cc2ccccc2)CCCN1.O.O",
    "Kass t-PA": "0.0034 L/mol × 10^6"
  },
  {
    "molecule": "CCOC(=O)N[C@H](Cc1ccccc1)C(=O)N1CCC[C@@]1(C)C(=O)N[C@H](C=O)CCCNC(=N)N.Cl",
    "Kass t-PA": "0.00079 L/mol × 10^6"
  },
  {
    "molecule": "Cl.N=C(N)NCCC[C@@H](C=O)NC(=O)[C@@H]1CCCN1C(=O)[C@@H](Cc1ccccc1)NC(=O)Cc1cccnc1",
    "Kass t-PA": "0.22 L/mol × 10^6"
  },
  {
    "molecule": "C[C@@]1(C(=O)N[C@H](C=O)CCCNC(=N)N)CCCN1C(=O)[C@H](Cc1ccccc1)NS(C)(=O)=O.Cl",
    "Kass t-PA": "0.0023 L/mol × 10^6"
  },
  {
    "molecule": "CCC[C@](Cc1ccccc1)(NC(=O)OCC)C(=O)N1CCC[C@H]1C(=O)N[C@H](C=O)CCCNC(=N)N.Cl",
    "Kass t-PA": "< 0.001 L/mol × 10^6"
  }
]

# input for lookup
**Query** Data request, read-out Kass t-PA, for CCCS(=O)(=O)N[C@H](Cc1ccccc1)C(=O)N1CCC[C@H]1C(=O)N[C@H](C=O)CCCNC(=N)N.Cl
**Result** 2.8 L/mol × 10^6

* * *

target: Bovine trypsin (Bos taurus); construct: Bovine trypsin is purchased from Worthington Biochemicals; purchased Worthington Biochemicals, Freehold, N.J; experiment: Serine protease inhibition (Kass), trypsin; format: biochemical
Sequence (P00760 24-246): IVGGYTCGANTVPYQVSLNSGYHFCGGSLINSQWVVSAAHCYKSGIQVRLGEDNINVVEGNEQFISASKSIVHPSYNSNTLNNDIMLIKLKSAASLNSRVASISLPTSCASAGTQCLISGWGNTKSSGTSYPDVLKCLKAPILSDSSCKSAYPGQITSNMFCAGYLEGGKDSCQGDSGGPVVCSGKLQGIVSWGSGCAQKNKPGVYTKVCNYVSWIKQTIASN
Non-standard residues stand in square brackets, D forms with d. Residues, ends and D or L forms follow the SMILES beside them. dNMeCha = CN[C@H](CC1CCCCC1)C(=O)O
Use TRUE when the recorded Kass Trypsin is no lower than 7 L/mol × 10^6; use FALSE when it is lower.

[
  {
    "molecule": "Cl.N=C(N)NCCC[C@@H](C=O)NC(=O)[C@@H]1CCCN1C(=O)[C@@H](Cc1ccccc1)NC(=O)c1cccnc1",
    "label": "TRUE"
  }
]

**Query** Given the entry CCCC(Cc1ccccc1)(NC(=O)OCC)C(=O)N1CCC[C@H]1C(=O)N[C@H](C=O)CCCNC(=N)N.Cl (stereo partly shown) , answer whether its Kass Trypsin meets or surpasses 7 L/mol × 10^6.
**Result** TRUE

**Query** Subsequent entry: CCNC(=O)N[C@H](Cc1ccccc1)C(=O)N1CCC[C@H]1C(=O)N[C@H](C=O)CCCNC(=N)N.Cl
**Result** TRUE

**Query** Subsequent entry: CN[C@H](CC1CCCCC1)C(=O)N1CCC[C@H]1C(=O)N[C@H](C=O)CCCNC(=N)N.Cl [Example 75] (H-[dNMeCha]-Pro-Arg-aldehyde)
**Result** TRUE

**Query** Subsequent entry: Cl.N=C(N)NCCC[C@@H](C=O)NC(=O)[C@@H]1CCCN1C(=O)[C@@H](Cc1ccccc1)NC(=O)Cc1ccccc1
**Result** TRUE

**Query** Subsequent entry: CN[C@@H](C(=O)N1CCC[C@H]1C(=O)N[C@@H](CCCNC(=N)N)C(O)S(=O)(=O)[O-])c1ccccc1.O=S(=O)(O)O.[Na+] (stereo partly shown)
**Result** TRUE

**Query** Subsequent entry: C[C@@]1(C(=O)N[C@H](C=O)CCCNC(=N)N)CCCN1C(=O)[C@H](Cc1ccccc1)NS(C)(=O)=O.Cl
**Result** FALSE

* * *

target: Human plasmin (Homo sapiens); construct: Human plasmin is purchased from Boehringer Mannheim; purchased Boehringer Mannheim, Indianapolis, Ind; experiment: Serine protease inhibition (Kass), plasmin; type: biochemical
Sequence (P00747 581-810 limits assumed): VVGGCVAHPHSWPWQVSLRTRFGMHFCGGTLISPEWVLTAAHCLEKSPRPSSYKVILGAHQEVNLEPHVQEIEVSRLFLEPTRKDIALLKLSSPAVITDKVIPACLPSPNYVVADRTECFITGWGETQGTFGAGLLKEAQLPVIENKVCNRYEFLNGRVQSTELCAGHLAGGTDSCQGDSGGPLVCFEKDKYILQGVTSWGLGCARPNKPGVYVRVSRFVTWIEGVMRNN
Sequence (P00747 97-580 partner limits assumed): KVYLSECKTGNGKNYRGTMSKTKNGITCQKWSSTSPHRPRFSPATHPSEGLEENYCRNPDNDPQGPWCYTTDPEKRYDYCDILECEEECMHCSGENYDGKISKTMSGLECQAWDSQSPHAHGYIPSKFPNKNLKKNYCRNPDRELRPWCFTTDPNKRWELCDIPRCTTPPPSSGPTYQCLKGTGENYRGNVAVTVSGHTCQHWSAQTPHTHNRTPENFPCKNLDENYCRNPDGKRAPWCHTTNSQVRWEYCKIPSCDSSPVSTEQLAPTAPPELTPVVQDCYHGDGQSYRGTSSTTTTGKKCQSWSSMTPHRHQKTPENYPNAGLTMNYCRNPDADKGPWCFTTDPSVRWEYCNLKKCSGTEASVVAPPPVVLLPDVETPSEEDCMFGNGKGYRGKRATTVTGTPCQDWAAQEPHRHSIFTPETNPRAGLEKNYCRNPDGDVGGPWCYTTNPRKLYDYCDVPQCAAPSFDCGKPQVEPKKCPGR
Listing of entries alongside the reported Kass Plasmin.
Number only, in L/mol × 10^6; omit the unit.

[
  {
    "compound": "CCCCC(CCCC)(NC(=O)OCC)C(=O)N1CCC[C@H]1C(=O)N[C@H](C=O)CCCNC(=N)N.Cl",
    "Kass Plasmin / L/mol × 10^6": 0.24
  },
  {
    "compound": "N=C(N)NCCC[C@H](NC(=O)[C@@H]1CCCN1C(=O)C1CC2CCCCC2CN1)C(O)S(=O)(=O)[O-].O=S(=O)(O)O.[Na+] (stereo partly shown)",
    "Kass Plasmin / L/mol × 10^6": 2.7
  },
  {
    "compound": "Cl.Cl.N=C(N)NCCC[C@@H](C=O)NC(=O)[C@@H]1CCCN1C(=O)C1(Cc2ccccc2)CCN1 (stereo partly shown)",
    "Kass Plasmin / L/mol × 10^6": 0.17
  }
]

**Query** Data request, read-out Kass Plasmin, for Cl.N=C(N)NCCC[C@@H](C=O)NC(=O)[C@@H]1CCCN1C(=O)[C@@H](Cc1ccccc1)NC(=O)c1cccnc1
**Result** 0.41

* * *

biological target: human thrombin (Homo sapiens, UniProt P00734); test: Thrombin amidase inhibition (Kass), chromogenic substrate; format: biochemical
Non-standard residues stand in square brackets, D forms with d. Residues, ends and D or L forms follow the SMILES beside them. dThz = O=C(O)[C@H]1CSCN1
Use YES when the recorded Kass Human Thrombin is no lower than 30 L/mol × 10^6; use NO when it is lower.

A selection of reference data follows.
[
  {
    "compound": "CNC(CC(=O)N1CCC[C@H]1C(=O)N[C@H](C=O)CCCNC(=N)N)C1CCCCC1.CNC(CC(=O)N1CCC[C@H]1C(=O)N[C@H](C=O)CCCNC(=N)N)C1CCCCC1.Cl.Cl.Cl.Cl.O (some centres unmarked) [Example 16]",
    "label": "YES"
  },
  {
    "compound": "Cl.N=C(N)NCCC[C@@H](C=O)NC(=O)[C@@H]1CCCN1C(=O)[C@@H](CC1CCCCC1)NC(=O)c1cc2ccccc2cn1 [Example 50]",
    "label": "YES"
  },
  {
    "compound": "CC(C)S(=O)(=O)N[C@H](Cc1ccccc1)C(=O)N1CCC[C@H]1C(=O)N[C@H](C=O)CCCNC(=N)N.Cl [Example 55]",
    "label": "YES"
  },
  {
    "compound": "Cl.Cl.N=C(N)NCCC[C@@H](C=O)NC(=O)[C@@H]1CCCN1C(=O)C1CCCNC1.O (some centres unmarked) [Example 19]",
    "label": "NO"
  },
  {
    "compound": "Cl.Cl.N=C(N)NCCC[C@@H](C=O)NC(=O)[C@@H]1CCCN1C(=O)CN1CCCCC1.O [Example 18]",
    "label": "NO"
  },
  {
    "compound": "CCS(=O)(=O)NC(C)(C(=O)N1CCC[C@H]1C(=O)N[C@H](C=O)CCCNC(=N)N)c1ccccc1.Cl (some centres unmarked) [Example 41]",
    "label": "YES"
  }
]

**Query** Given the entry Cl.Cn1c(C(=O)N[C@H](Cc2ccccc2)C(=O)N2CCC[C@H]2C(=O)N[C@H](C=O)CCCNC(=N)N)cc2ccccc21 [Example 45] , answer whether its Kass Human Thrombin meets or surpasses 30 L/mol × 10^6.
**Result** YES

**Query** Subsequent entry: Cl.Cl.N=C(N)NCCC[C@@H](C=O)NC(=O)[C@]1(Cc2ccccc2)CCCN1C(=O)[C@@H]1CCCN1 [Example 25]
**Result** YES

**Query** Subsequent entry: Cl.N=C(N)NCCC[C@@H](C=O)NC(=O)[C@@H]1CCCN1C(=O)[C@@H](Cc1ccccc1)NS(=O)(=O)c1ccc(F)cc1F [Example 58]
**Result** YES

**Query** Subsequent entry: Cl.Cl.N=C(N)NCCC[C@@H](C=O)NC(=O)[C@@H]1CCCN1C(=O)[C@H]1CSCN1 [Example 4] (H-[dThz]-Pro-Arg-aldehyde)
**Result** NO

**Query** Subsequent entry: CCS(=O)(=O)NC1(C(=O)N2CCC[C@H]2C(=O)N[C@H](C=O)CCCNC(=N)N)CCCCC1.Cl [Example 31]
**Result** NO

**Query** Subsequent entry: CCS(=O)(=O)N[C@H](Cc1ccccc1)C(=O)N1CCC[C@H]1C(=O)N[C@H](C=O)CCCNC(=N)N.Cl [Example 52]
**Result** YES

**Query** Subsequent entry: CC(=O)N[C@H](Cc1ccccc1)C(=O)N1CCC[C@H]1C(=O)N[C@H](C=O)CCCNC(=N)N.Cl [Example 67]
**Result** NO

**Query** Subsequent entry: N=C(N)NCCC[C@H](NC(=O)[C@@H]1CCCN1C(=O)C1CC2CCCCC2CN1)C(O)S(=O)(=O)[O-].O=S(=O)(O)O.[Na+] (some centres unmarked) [Example 80]
**Result** YES

**Query** Subsequent entry: Cl.N=C(N)NCCC[C@@H](C=O)NC(=O)[C@@H]1CCCN1C(=O)[C@@H](Cc1ccccc1)NC(=O)c1cccnc1 [Example 47]
**Result** YES
